- Tested on: Rhizomucor
- assay explanation: Antifungal activity against Rhizomucor spp after 24 hrs
- Format: functional
measured attribute: MIC90
For clarity, give the value followed by its unit.

Recorded results for 4 compounds are shown here.
CC[C@@H]([C@H](C)O)n1ncn(-c2ccc(N3CCN(c4ccc(OC[C@@H]5CO[C@@](Cn6cncn6)(c6ccc(F)cc6F)C5)cc4)CC3)cc2)c1=O [POSACONAZOLE] ... 0.5 µg/mL
CCC(C)n1ncn(-c2ccc(N3CCN(c4ccc(OCC5COC(Cn6cncn6)(c6ccc(Cl)cc6Cl)O5)cc4)CC3)cc2)c1=O (stereo not given) [ITRACONAZOLE] ... 2 µg/mL
C[C@@H](c1ncncc1F)[C@](O)(Cn1cncn1)c1ccc(F)cc1F [VORICONAZOLE] ... 16 µg/mL
CC[C@H](C)C[C@H](C)CCCCCCCCC(=O)N[C@H]1C[C@@H](O)[C@@H](NCCN)NC(=O)[C@@H]2[C@@H](O)CCN2C(=O)[C@H]([C@H](O)CCN)NC(=O)[C@H]([C@H](O)[C@@H](O)c2ccc(O)cc2)NC(=O)[C@@H]2C[C@@H](O)CN2C(=O)[C@H]([C@@H](C)O)NC1=O [CASPOFUNGIN] ... 256 µg/mL

Consider the additional compound presented here.
# return recorded MIC90 for entry C[C@@H]1[C@H](O)[C@@H](C)/C=C/C=C/C=C/C=C/C=C/C=C/C=C/[C@H](O[C@@H]2O[C@H](C)[C@@H](O)[C@H](N)[C@@H]2O)C[C@@H]2O[C@](O)(C[C@@H](O)C[C@@H](O)[C@H](O)CC[C@@H](O)C[C@@H](O)CC(=O)O[C@H]1C)C[C@H](O)[C@H]2C(=O)O [AMPHOTERICIN B] 1 µg/mL

---

- System: Absidia
- assay explanation: Antifungal activity against Absidia spp after 24 hrs
- Format: functional
measured attribute: MIC50 (µg/mL)
Write the value in µg/mL as a bare number.

CCC(C)n1ncn(-c2ccc(N3CCN(c4ccc(OCC5COC(Cn6cncn6)(c6ccc(Cl)cc6Cl)O5)cc4)CC3)cc2)c1=O (stereo not given) ... 1
CC[C@H](C)C[C@H](C)CCCCCCCCC(=O)N[C@H]1C[C@@H](O)[C@@H](NCCN)NC(=O)[C@@H]2[C@@H](O)CCN2C(=O)[C@H]([C@H](O)CCN)NC(=O)[C@H]([C@H](O)[C@@H](O)c2ccc(O)cc2)NC(=O)[C@@H]2C[C@@H](O)CN2C(=O)[C@H]([C@@H](C)O)NC1=O ... 256
C[C@@H]1[C@H](O)[C@@H](C)/C=C/C=C/C=C/C=C/C=C/C=C/C=C/[C@H](O[C@@H]2O[C@H](C)[C@@H](O)[C@H](N)[C@@H]2O)C[C@@H]2O[C@](O)(C[C@@H](O)C[C@@H](O)[C@H](O)CC[C@@H](O)C[C@@H](O)CC(=O)O[C@H]1C)C[C@H](O)[C@H]2C(=O)O ... 1

Consider the additional molecule presented here.
# return recorded MIC50 for entry `CC[C@@H]([C@H](C)O)n1ncn(-c2ccc(N3CCN(c4ccc(OC[C@@H]5CO[C@@](Cn6cncn6)(c6ccc(F)cc6F)C5)cc4)CC3)cc2)c1=O` 0.5

---

- System: Rhizopus
- assay explanation: Antifungal activity against Rhizopus spp after 24 hrs
- Assay type: functional
Property: MIC50; scope: individual compounds
Write the value in µg/mL as a bare number.

Recorded results for 3 compounds are shown here.
C[C@@H]1[C@H](O)[C@@H](C)/C=C/C=C/C=C/C=C/C=C/C=C/C=C/[C@H](O[C@@H]2O[C@H](C)[C@@H](O)[C@H](N)[C@@H]2O)C[C@@H]2O[C@](O)(C[C@@H](O)C[C@@H](O)[C@H](O)CC[C@@H](O)C[C@@H](O)CC(=O)O[C@H]1C)C[C@H](O)[C@H]2C(=O)O ... 1
CC[C@@H]([C@H](C)O)n1ncn(-c2ccc(N3CCN(c4ccc(OC[C@@H]5CO[C@@](Cn6cncn6)(c6ccc(F)cc6F)C5)cc4)CC3)cc2)c1=O ... 0.5
C[C@@H](c1ncncc1F)[C@](O)(Cn1cncn1)c1ccc(F)cc1F ... 16

Consider the additional compound presented here.
# return recorded MIC50 for entry CCC(C)n1ncn(-c2ccc(N3CCN(c4ccc(OCC5COC(Cn6cncn6)(c6ccc(Cl)cc6Cl)O5)cc4)CC3)cc2)c1=O (stereo not given) 1
